# system under test: Steroid 17-alpha-hydroxylase/17,20 lyase (Rattus norvegicus, UniProt P11715)
# procedure summary: Inhibition of rat testis 17,20 lyase component of P450-17alpha
Please provide measured IC50 for the entries that follow.
One number for each entry, in µM.

Can you give me IC50 for all of these, one by one?
1. c1ccc(Cn2ccnc2)cc1
2. Brc1ccc(Cn2ccnc2)cc1
3. Fc1ccc(Cn2ccnc2)cc1
4. Clc1ccc(Cn2ccnc2)cc1
5. Fc1ccc(CCCn2ccnc2)cc1

Return:
1: 50.9; 2: 2.85; 3: 11.3; 4: 4.94; 5: 1.96

====

# system under test: Steroid 17-alpha-hydroxylase/17,20 lyase (Rattus norvegicus, UniProt P11715)
# procedure summary: Inhibition of rat testis 17,20 lyase component of P450-17alpha at 10 uM
measured parameter: inhibition at 10 µM

For orientation, consider the following solved cases.
- compound: "c1ccc(CCn2ccnc2)cc1"
  test value: "6.36%"
- compound: "Clc1ccc(CCCn2ccnc2)cc1"
  test value: "80.8%"
- compound: "Fc1ccc(CCn2ccnc2)cc1"
  test value: "45.1%"
- compound: "Brc1ccc(CCCn2ccnc2)cc1"
  test value: "86.3%"

Can you give me inhibition at 10 µM for all of these, one by one?
1. c1ccc(Cn2ccnc2)cc1
2. Clc1ccc(Cn2ccnc2)cc1
3. Brc1ccc(CCn2ccnc2)cc1

Return:
12.6%
73.7%
61.5%

====

Please provide measured log10 of IC50 for the entries that follow.
# system under test: Steroid 17-alpha-hydroxylase/17,20 lyase (Rattus norvegicus)
# procedure summary: Inhibition of rat testis 17-alpha-hydroxylase component of P450-17alpha
A value of 2 here means IC50 of 100 in µM, since values are log10.

For orientation, consider the following solved cases.
- smiles representation: "Clc1ccc(CCCn2ccnc2)cc1"
  log10 of IC50: 0.77
- smiles representation: "Clc1ccc(CCn2ccnc2)cc1"
  log10 of IC50: 1.70
- smiles representation: "Brc1ccc(CCn2ccnc2)cc1"
  log10 of IC50: 1.49
- smiles representation: "Brc1ccc(Cn2ccnc2)cc1"
  log10 of IC50: 1.22

Can you give me log10 of IC50 for all of these, one by one?
1. Fc1ccc(Cn2ccnc2)cc1
2. c1ccc(Cn2ccnc2)cc1

Return:
1.98
2.19

====

# system under test: Steroid 17-alpha-hydroxylase/17,20 lyase (Rattus norvegicus, UniProt P11715)
# procedure summary: Inhibition of rat testis 17-alpha-hydroxylase component of P450-17alpha at 10 uM
Decide by inhibition at 10 µM: equal to or exceeding 30% means YES, less means NO.

- compound: "c1ccc(CCn2ccnc2)cc1"
  system under test: "Steroid 17-alpha-hydroxylase/17,20 lyase (Rattus norvegicus, UniProt P11715)"
  category label: "NO"
- compound: "Brc1ccc(CCCn2ccnc2)cc1"
  system under test: "Steroid 17-alpha-hydroxylase/17,20 lyase (Rattus norvegicus, UniProt P11715)"
  category label: "YES"
- compound: "Brc1ccc(CCn2ccnc2)cc1"
  system under test: "Steroid 17-alpha-hydroxylase/17,20 lyase (Rattus norvegicus, UniProt P11715)"
  category label: "YES"
- compound: "Fc1ccc(CCn2ccnc2)cc1"
  system under test: "Steroid 17-alpha-hydroxylase/17,20 lyase (Rattus norvegicus, UniProt P11715)"
  category label: "NO"
- compound: "c1ccc(CCCn2ccnc2)cc1"
  system under test: "Steroid 17-alpha-hydroxylase/17,20 lyase (Rattus norvegicus, UniProt P11715)"
  category label: "NO"

Enquiry: Check this compound for inhibition at 10 µM at or above 30%: Fc1ccc(CCCn2ccnc2)cc1
Return: YES

====

# system under test: Steroid 17-alpha-hydroxylase/17,20 lyase (Rattus norvegicus, UniProt P11715)
# procedure summary: Inhibition of rat testis 17,20 lyase component of P450-17alpha
measured parameter: IC50 (nM)
Answers are plain numbers, in nM.

- smiles representation: "c1ccc(CCCn2ccnc2)cc1"
  system under test: "Steroid 17-alpha-hydroxylase/17,20 lyase (Rattus norvegicus, UniProt P11715)"
  IC50, nM: 6140
- smiles representation: "Brc1ccc(CCCn2ccnc2)cc1"
  system under test: "Steroid 17-alpha-hydroxylase/17,20 lyase (Rattus norvegicus, UniProt P11715)"
  IC50, nM: 330

The molecule identified as Clc1ccc(CCCn2ccnc2)cc1 registered its IC50 at 550

====

Please provide measured inhibition at 10 µM for the entries that follow.
# system under test: Steroid 17-alpha-hydroxylase/17,20 lyase (Rattus norvegicus)
# Sequence (P11715 whole entry): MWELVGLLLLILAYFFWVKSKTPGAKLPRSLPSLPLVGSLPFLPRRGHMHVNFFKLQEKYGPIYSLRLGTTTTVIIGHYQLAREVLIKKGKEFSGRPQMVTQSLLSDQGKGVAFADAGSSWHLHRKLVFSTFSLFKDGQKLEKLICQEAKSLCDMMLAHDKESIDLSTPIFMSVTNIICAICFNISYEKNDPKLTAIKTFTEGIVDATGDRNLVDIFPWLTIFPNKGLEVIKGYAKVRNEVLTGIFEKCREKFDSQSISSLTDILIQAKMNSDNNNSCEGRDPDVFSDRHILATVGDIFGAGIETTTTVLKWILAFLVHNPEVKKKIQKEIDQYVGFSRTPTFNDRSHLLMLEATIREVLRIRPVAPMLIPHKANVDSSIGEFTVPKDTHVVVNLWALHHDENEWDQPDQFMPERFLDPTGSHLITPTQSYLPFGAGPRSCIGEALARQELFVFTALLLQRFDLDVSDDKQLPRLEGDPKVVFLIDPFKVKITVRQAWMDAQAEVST
# procedure summary: Inhibition of rat testis 17,20 lyase component of P450-17alpha at 10 uM
One number for each entry, in %.

For orientation, consider the following solved cases.
- molecule: "Fc1ccc(CCCn2ccnc2)cc1"
  unit descriptor: "%"
  inhibition at 10 µM: 73.2
- molecule: "Fc1ccc(Cn2ccnc2)cc1"
  unit descriptor: "%"
  inhibition at 10 µM: 51
- molecule: "CC(=O)N1CCN(c2ccc(OCC3COC(Cn4ccnc4)(c4ccc(Cl)cc4Cl)O3)cc2)CC1 (stereo unspecified)"
  unit descriptor: "%"
  inhibition at 10 µM: 78.7
- molecule: "c1ccc(CCCn2ccnc2)cc1"
  unit descriptor: "%"
  inhibition at 10 µM: 40
- molecule: "Clc1ccc(CCn2ccnc2)cc1"
  unit descriptor: "%"
  inhibition at 10 µM: 57.4

Continue with the next molecule.
Observed inhibition at 10 µM, Steroid 17-alpha-hydroxylase/17,20 lyase (Rattus norvegicus), Brc1ccc(Cn2ccnc2)cc1 : 76.2

====

Please provide measured IC50 for the entries that follow.
# system under test: Steroid 17-alpha-hydroxylase/17,20 lyase (Rattus norvegicus, UniProt P11715)
# procedure summary: Inhibition of rat testis 17-alpha-hydroxylase component of P450-17alpha
Answers are plain numbers, in µM.

For orientation, consider the following solved cases.
- smiles representation: "Fc1ccc(CCn2ccnc2)cc1"
  IC50 / µM: 120
- smiles representation: "Fc1ccc(CCCn2ccnc2)cc1"
  IC50 / µM: 27.8
- smiles representation: "Brc1ccc(CCCn2ccnc2)cc1"
  IC50 / µM: 2.95
- smiles representation: "Clc1ccc(Cn2ccnc2)cc1"
  IC50 / µM: 29.8

The compound identified as c1ccc(CCCn2ccnc2)cc1 registered its IC50 at 30.9

====

# system under test: Steroid 17-alpha-hydroxylase/17,20 lyase (Rattus norvegicus, UniProt P11715)
# procedure summary: Inhibition of rat testis 17-alpha-hydroxylase component of P450-17alpha at 10 uM
Decide by inhibition at 10 µM: equal to or exceeding 30% means condition met, less means condition not met.

Here's what some known entries look like.
- molecule: "Brc1ccc(Cn2ccnc2)cc1"
  category label: "condition met"
- molecule: "CC(=O)N1CCN(c2ccc(OCC3COC(Cn4ccnc4)(c4ccc(Cl)cc4Cl)O3)cc2)CC1 (configuration not stated) [KETOCONAZOLE]"
  category label: "condition met"
- molecule: "Clc1ccc(CCCn2ccnc2)cc1"
  category label: "condition met"
- molecule: "Fc1ccc(Cn2ccnc2)cc1"
  category label: "condition not met"

Enquiry: Check this molecule for inhibition at 10 µM at or above 30%: Clc1ccc(Cn2ccnc2)cc1
Return: condition met

Enquiry: Check this molecule for inhibition at 10 µM at or above 30%: Clc1ccc(CCn2ccnc2)cc1
Return: condition not met

Enquiry: Check this molecule for inhibition at 10 µM at or above 30%: c1ccc(Cn2ccnc2)cc1
Return: condition not met

// provenance: ChEMBL document CHEMBL1149361
